target: D(1A) dopamine receptor (Homo sapiens, UniProt P21728); assay: Displacement of [3H]SCH23390 from human recombinant dopamine D1 receptor expressed in HEK293 cells by microplate scintillation counting
Sequence (P21728 whole entry): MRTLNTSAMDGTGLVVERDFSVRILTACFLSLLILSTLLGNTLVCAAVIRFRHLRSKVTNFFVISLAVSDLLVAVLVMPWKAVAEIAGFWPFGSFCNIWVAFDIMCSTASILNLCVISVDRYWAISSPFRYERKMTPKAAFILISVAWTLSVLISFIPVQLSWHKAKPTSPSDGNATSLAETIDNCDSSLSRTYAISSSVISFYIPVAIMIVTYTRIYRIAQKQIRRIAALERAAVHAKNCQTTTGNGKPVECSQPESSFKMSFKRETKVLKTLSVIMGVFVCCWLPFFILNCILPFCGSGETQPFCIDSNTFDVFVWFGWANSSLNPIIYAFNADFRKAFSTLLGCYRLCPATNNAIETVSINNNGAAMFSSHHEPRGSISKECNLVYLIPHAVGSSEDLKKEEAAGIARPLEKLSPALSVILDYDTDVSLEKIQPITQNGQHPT
result_type: Ki

Please review the following examples before continuing.
compound=CN1CCc2ccccc2Cc2c[nH]c3cccc(c23)CC1 result="4.2 nM"
compound=CN1CCc2ccccc2Cc2c([nH]c3ccccc23)CC1 result="28.5 nM"
compound=CN1CCc2ccccc2Cc2c[nH]c3cccc(c23)C1 result="> 10000 nM"
compound="c1ccc2c(c1)CCN1CCc3[nH]c4ccccc4c3C21 (stereo not given)" result="2100 nM"

Let us move to another entry and its Ki.
The recorded Ki for entry c1ccc2c(c1)CCN1CCc3cccc4[nH]cc(c34)C21 (stereo not given) equals 1840 nM

###

molecular target: D(2) dopamine receptor (Homo sapiens, UniProt P14416); test: Antagonist activity at human dopamine D2L receptor expressed in HEK293 cells assessed as inhibition of quinpirole-induced calcium influx
Sequence (P14416 whole entry): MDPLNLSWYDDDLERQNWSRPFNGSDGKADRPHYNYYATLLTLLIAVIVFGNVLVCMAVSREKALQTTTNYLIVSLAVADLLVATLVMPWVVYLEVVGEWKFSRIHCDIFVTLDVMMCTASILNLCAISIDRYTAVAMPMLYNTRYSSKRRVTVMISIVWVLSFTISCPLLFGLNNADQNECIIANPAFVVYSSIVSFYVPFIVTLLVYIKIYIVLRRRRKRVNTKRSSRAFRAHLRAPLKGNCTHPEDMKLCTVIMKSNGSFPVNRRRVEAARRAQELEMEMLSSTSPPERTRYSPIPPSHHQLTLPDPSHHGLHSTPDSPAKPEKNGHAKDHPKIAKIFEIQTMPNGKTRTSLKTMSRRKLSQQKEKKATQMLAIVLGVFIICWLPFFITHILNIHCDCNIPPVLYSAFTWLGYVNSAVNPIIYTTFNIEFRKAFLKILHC
Active and inactive are the calls of the source. The rule behind the calls is not given here.
result_type: Activity

molecule="c1ccc2c(c1)CCN1CCc3cccc4[nH]cc(c34)C21 (stereo unspecified)" test_target="D(2) dopamine receptor (Homo sapiens, UniProt P14416)" result=Active
molecule=CN1CCc2ccccc2Cc2c([nH]c3ccccc23)CC1 test_target="D(2) dopamine receptor (Homo sapiens, UniProt P14416)" result=Active
molecule="c1ccc2c(c1)CCN1Cc3cccc4[nH]cc(c34)C21 (stereo unspecified)" test_target="D(2) dopamine receptor (Homo sapiens, UniProt P14416)" result=Active
molecule=CN1CCc2ccccc2Cc2c[nH]c3cccc(c23)CC1 test_target="D(2) dopamine receptor (Homo sapiens, UniProt P14416)" result=Active
molecule="c1ccc2c(c1)CCN1CCc3[nH]c4ccccc4c3C21 (stereo unspecified)" test_target="D(2) dopamine receptor (Homo sapiens, UniProt P14416)" result=Active

Now for a further molecule.
GET /value?item= CN1CCc2ccccc2Cc2[nH]c3ccccc3c2CC1 &field=Activity returns Active

###

target: D(4) dopamine receptor (Homo sapiens, UniProt P21917); assay: Displacement of [3H]radioligand from human recombinant dopamine D4.4 receptor expressed in CHO cells by microplate scintillation counting
Sequence (P21917 whole entry): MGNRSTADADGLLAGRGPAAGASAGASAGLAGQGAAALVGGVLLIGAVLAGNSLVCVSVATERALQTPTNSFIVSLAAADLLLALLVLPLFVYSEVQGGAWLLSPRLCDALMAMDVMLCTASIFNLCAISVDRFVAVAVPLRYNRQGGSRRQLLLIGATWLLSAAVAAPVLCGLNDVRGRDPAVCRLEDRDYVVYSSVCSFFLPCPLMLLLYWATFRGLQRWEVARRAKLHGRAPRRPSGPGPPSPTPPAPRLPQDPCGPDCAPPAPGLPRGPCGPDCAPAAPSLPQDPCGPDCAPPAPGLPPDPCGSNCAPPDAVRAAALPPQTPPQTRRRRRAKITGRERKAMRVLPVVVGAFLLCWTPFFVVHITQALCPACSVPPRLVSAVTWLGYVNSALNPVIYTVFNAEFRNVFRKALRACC
Consider the following compounds and their measured Ki readings.

compound=CN1CCc2ccccc2Cc2c[nH]c3cccc(c23)CC1 result_type=Ki result="0.0391 µM"
compound=CN1CCc2ccccc2Cc2c([nH]c3ccccc23)CC1 result_type=Ki result="0.225 µM"
compound="c1ccc2c(c1)CCN1CCc3[nH]c4ccccc4c3C21 (stereo unspecified)" result_type=Ki result="> 10 µM"
compound="c1ccc2c(c1)CCN1CCc3cccc4[nH]cc(c34)C21 (stereo unspecified)" result_type=Ki result="> 10 µM"
compound=CN1CCc2ccccc2Cc2c[nH]c3cccc(c23)C1 result_type=Ki result="> 10 µM"

Continue with the compound presented below.
Given item c1ccc2c(c1)CCN1Cc3cccc4[nH]cc(c34)C21 (stereo unspecified) , the value recorded as its Ki is > 10 µM

###

biological target: D(3) dopamine receptor (Homo sapiens, UniProt P35462); experiment: Displacement of [3H]radioligand from human recombinant dopamine D3 receptor expressed in HEK293 cells by microplate scintillation counting
Sequence (P35462 whole entry): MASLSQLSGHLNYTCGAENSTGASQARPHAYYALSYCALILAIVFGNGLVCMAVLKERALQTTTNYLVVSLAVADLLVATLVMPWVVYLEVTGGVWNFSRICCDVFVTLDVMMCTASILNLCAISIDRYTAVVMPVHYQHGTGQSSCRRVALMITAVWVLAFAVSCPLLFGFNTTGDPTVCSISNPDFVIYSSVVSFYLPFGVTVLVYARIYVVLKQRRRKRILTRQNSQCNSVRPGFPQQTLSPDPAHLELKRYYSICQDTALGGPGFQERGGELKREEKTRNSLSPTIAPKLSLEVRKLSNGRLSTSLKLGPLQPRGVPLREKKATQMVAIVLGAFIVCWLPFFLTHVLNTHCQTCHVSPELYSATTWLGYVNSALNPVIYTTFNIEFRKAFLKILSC
result_type: pKi
Scale: negative log10 of molar concentration, which is what pKi denotes.

smiles_notation=CN1CCc2ccccc2Cc2c[nH]c3cccc(c23)CC1 test_target="D(3) dopamine receptor (Homo sapiens, UniProt P35462)" result_type=pKi result_number=7.37

Field: next compound
Input CN1CCc2ccccc2Cc2c([nH]c3ccccc23)CC1 . Output pKi: 6.29
